- assayed system: Collagen alpha-1(I) chain (Homo sapiens)
- procedure details: Inhibition of COL1A1 (unknown origin) expressed in human LX2 cells at 20 micromol/L incubated for 48 hrs by Bright-Glo luciferase assay relative to control
- Format: cell-based
- condition description: dose 20.0 µmol/L
parameter: inhibition (%)
Value expressed in %; do not type the unit.

Name the reported inhibition value associated with the compound COc1cc2c(cc1OC)-c1cc3ccc(OC)c(OCC4CCCC4)c3c[n+]1CC2
46

Name the reported inhibition value associated with the compound CCCC(=O)Nc1c(OC)ccc2cc3[n+](cc12)CCc1cc(OC)c(OC)cc1-3
5.11

Name the reported inhibition value associated with the compound COc1cc2c(cc1OC)-c1cc3ccc(OC)c(OCc4cc(C)cc(C)c4)c3c[n+]1CC2
25

Name the reported inhibition value associated with the compound COc1cc2c(cc1OC)-c1cc3ccc(OC)c(OC(=O)Cc4ccc(C(F)(F)F)cc4)c3c[n+]1CC2
12.4

Name the reported inhibition value associated with the compound COc1cc2c(cc1OC)-c1c(Cc3cccc(C#N)c3)c3ccc(OC)c(OC)c3c[n+]1CC2
4.38

Name the reported inhibition value associated with the compound COc1cc2c(cc1OC)-c1c(Cc3ccc(C#N)cc3)c3ccc(OC)c(OC)c3c[n+]1CC2
16.3

Name the reported inhibition value associated with the compound COc1cc2c(cc1OC)-c1cc3ccc(OC)c(NC(=O)C4CCCCC4)c3c[n+]1CC2
3.33

Name the reported inhibition value associated with the compound CCOc1cc2c(cc1OC)-c1cc3ccc(OC)c(NCc4ccc(Br)cc4)c3c[n+]1CC2
8.92

Name the reported inhibition value associated with the compound COc1cc2c(cc1OC)-c1cc3ccc(OC)c(OCc4ccc(F)cc4)c3c[n+]1CC2
10.9

Name the reported inhibition value associated with the compound CCCCCCCOc1c(OC)ccc2cc3[n+](cc12)CCc1cc(OC)c(OC)cc1-3
94.4

Name the reported inhibition value associated with the compound COc1cc2c(cc1OC)-c1cc3ccc(OC)c(OC(=O)c4ccco4)c3c[n+]1CC2
0

Name the reported inhibition value associated with the compound COc1cc(Cc2c3[n+](cc4c(OC)c(OC)ccc24)CCc2cc(OC)c(OC)cc2-3)cc(OC)c1
39

Name the reported inhibition value associated with the compound COc1cc2c(cc1OC)-c1cc3ccc(OC)c(OCc4ccccn4)c3c[n+]1CC2
15.2
